Reference source for all entries: ChEMBL document CHEMBL1143949

Test system: NIH3T3
Assay: Antiproliferative activity against mouse NIH3T3 cells
Format: functional, cell-based
So basically, if IC50 comes in under 1000 nM it's satisfied, and if it's 1000 nM or more it's not satisfied.

[[record]]
molecule_smiles = "Cc1ccc(NC2=C(Cl)C(=O)c3nc(C)[nH]c3C2=O)cc1"
assigned_class = "not satisfied"

[[record]]
molecule_smiles = "Cc1nc2c([nH]1)C(=O)/C(=N/c1cccc(Br)c1)C(Cl)=C2O"
assigned_class = "satisfied"

[[record]]
molecule_smiles = "Cc1nc2c([nH]1)C(=O)/C(=N/c1ccc(C(F)(F)F)cc1)C(Cl)=C2O"
assigned_class = "not satisfied"

[[record]]
molecule_smiles = "Cc1nc2c([nH]1)C(=O)/C(=N/c1ccc(F)cc1F)C(Cl)=C2O"
assigned_class = "satisfied"

[[record]]
molecule_smiles = "Cc1nc2c([nH]1)C(=O)/C(=N/c1cccc(Cl)c1)C(Cl)=C2O"
assigned_class = "not satisfied"

[[record]]
molecule_smiles = "Cc1nc2c([nH]1)C(=O)/C(=N/c1ccc(Cl)cc1Cl)C(Cl)=C2O"
assigned_class = "not satisfied"

[[record]]
molecule_smiles = "Cc1nc2c([nH]1)C(=O)/C(=N/c1cccc(Cl)c1Cl)C(Cl)=C2O"
assigned_class = "not satisfied"

[[record]]
molecule_smiles = "Cc1nc2c([nH]1)C(=O)/C(=N/c1ccc(F)c(F)c1F)C(Cl)=C2O"
assigned_class = "not satisfied"

[[record]]
molecule_smiles = "Cc1nc2c([nH]1)C(=O)/C(=N/c1ccc(I)cc1)C(Cl)=C2O"
assigned_class = "satisfied"

[[record]]
molecule_smiles = "Cc1nc2c([nH]1)C(=O)/C(=N/c1ccccc1)C(Cl)=C2O"
assigned_class = "not satisfied"

[[record]]
molecule_smiles = "Cc1nc2c([nH]1)C(=O)/C(=N/c1ccc(F)cc1)C(Cl)=C2O"
assigned_class = "not satisfied"

[[record]]
molecule_smiles = "Cc1nc2c([nH]1)C(=O)/C(=N/c1ccc(Cl)cc1)C(Cl)=C2O"
assigned_class = "not satisfied"

